The measured values listed here are drawn from BigSolDB 2.1.

Conditions: in n-butanol, 293.15 K
endpoint: solubility (mole fraction)

query smiles	obs value
NC(=O)N1c2ccccc2CC(=O)c2ccccc21	0.000309

====

Details: in acetone, 298.15 K

query smiles	solubility (mole fraction)
NC(=O)N1c2ccccc2CC(=O)c2ccccc21	0.00134

====

Conditions: in n-propanol, 308.15 K

query smiles	solubility (mole fraction)
NC(=O)N1c2ccccc2CC(=O)c2ccccc21	0.000616
